// data source = paper PMC9975091

- Test system: HCT-116
- measurement.protocol: MTT cytotoxicity assay, HCT-116
- Assay type: cell-based
- cond: Homo sapiens, HCT-116, 72 h, read-out: IC50 against HCT-116 μM 72 h
property.measured: IC50 (µM)
Give just the number in µM; leave the unit off.

> print(dat)
                               given.smiles  data.value
1  O=C(Cn1cc(COc2nc(-c3ccc(Cl)cc3)nc3ccccc23)nn1)Nc1cccc(Br)c1        54.2

Prompt line: Return reported IC50; argument: `Cc1ccc(NC(=O)Cn2cc(COc3nc(-c4ccc(Cl)cc4)nc4ccccc34)nn2)cc1`
Response line: 24.2

Prompt line: Follow-up entry: `COc1ccc(-c2nc(OCc3cn(CC(=O)Nc4ccc(Br)cc4)nn3)c3ccccc3n2)cc1`
Response line: 12.2

Prompt line: // query: `O=C(Cn1cc(COc2nc(-c3ccc(Cl)cc3)nc3ccccc23)nn1)Nc1ccccc1`
Response line: 24.5

* * *

- Test system: HCT-116
- measurement.protocol: MTT cytotoxicity assay, HCT-116
- Assay type: cell-based
- cond: Homo sapiens, HCT-116, 72 h, read-out: IC50 against HCT-116 μM 72 h
Label y when IC50 is strictly below 9 µM; otherwise label n.

molecule	category.label
COc1cccc2c1C(=O)c1c(O)c3c(c(O)c1C2=O)C[C@@](O)(C(=O)CO)C[C@@H]3O[C@H]1C[C@H](N)[C@H](O)[C@H](C)O1 [Doxorubicin, reference compound]	y
COc1ccc(-c2nc(OCc3cn(CC(=O)Nc4ccccc4)nn3)c3ccccc3n2)cc1	y
COc1cc(-c2nc(OCc3cn(CC(=O)Nc4ccc(C)cc4)nn3)c3ccccc3n2)cc(OC)c1OC	n

Prompt line: I'd appreciate it if you could check whether `COc1ccc(-c2nc(OCc3cn(CC(=O)Nc4ccc(Cl)cc4)nn3)c3ccccc3n2)cc1` has IC50 smaller than 9 µM.
Response line: n

Prompt line: Entry to check: `COc1cc(-c2nc(OCc3cn(CC(=O)Nc4ccccc4)nn3)c3ccccc3n2)cc(OC)c1OC`
Response line: n

Prompt line: Now try `O=C(Cn1cc(COc2nc(-c3ccc(Cl)cc3)nc3ccccc23)nn1)Nc1ccc(Br)cc1` .
Response line: n

Prompt line: Subsequent entry: `COc1ccc(-c2nc(OCc3cn(CC(=O)Nc4ccc([N+](=O)[O-])cc4C)nn3)c3ccccc3n2)cc1`
Response line: n

Prompt line: Same again, this time with `COc1ccc(-c2nc(OCc3cn(CC(=O)Nc4cccc(OC)c4)nn3)c3ccccc3n2)cc1`
Response line: n
